Tested on: SF-295 CNS
Test protocol: NCI-60 one-dose screen, 48 h (100 = growth as untreated, 0 = no growth, -100 = all killed)
Run conditions: 10 µM unless noted
About 83,000 compounds went through this panel and 20% of them were active in at least one assay; those are over-represented in the sample as a whole.
Param threshold (-10%) applies to growth; output class 1 when value >= threshold, class 0 when value < threshold.

| Compound | Label class |
| --- | --- |
| O=C(Nc1cc(Br)ccn1)c1cc2cc(Nc3nc(-c4ccccc4)nc4ccccc34)ccc2oc1=O | class 1 |
| COc1ccc2nc3c(n2c1)C(=O)C(=O)c1ccccc1-3 | class 0 |
| Nc1c(C(=O)Nc2ccccn2)sc2nc3c(cc12)CCCC3 | class 1 |

Incoming: Identify whether the reported growth of the following molecule is -10% or greater: "COc1ccc(/C=C(/C(=O)N2CCCC2)c2cc(OC)c(OC)c(OC)c2)cc1"
Outgoing: class 1
